Data credit: patent US6828315B1

# melting point >= 200 °C gives Met, anything below gives Not met

[[record]]
compound = "Cn1c(=O)c2ccc(Cl)cc2n2c(N3CCCCCC3)nnc12"
assigned_category = "Not met"

[[record]]
compound = "O=c1c2cc(Cl)ccc2n2c(N3CCCCCC3)nnc2n1Cc1cccnc1"
assigned_category = "Not met"

[[record]]
compound = "COc1ccc(Cn2c(=O)c3cc(Br)ccc3n3c(N4CCCCCC4)nnc23)cc1OC"
assigned_category = "Not met"


Evaluate Cn1c(=O)c2cc(Br)ccc2n2c(N3CCCCCC3)nnc12 : melting point at minimum 200 °C?
Not met

Entry COc1ccc(Cn2c(=O)c3cc(Cl)ccc3n3c(N4CCCCCC4)nnc23)cc1 please
Not met

###

Measured IC50, listed per entry for reference.
target: type 4 phosphodiesterases (PDE4); assay: Inhibition of the phosphodiesterase (PDE4), enzymatic preparation from line U937; assay type: biochemical; settings: PDE4 from cytosolic preparation of human cell line U937
Respond with the bare value in nM.

# example entries with known answers
[[record]]
compound_string = "Cc1ccc2c(c1)c(=O)n(CC=Cc1ccccc1)c1nnc(N3CCCC3)n21"
unit_of_measurement = "nM"
observed = 29

[[record]]
compound_string = "CC(C)Nc1ccc2c(c1)c(=O)n(Cc1ccccc1)c1nnc(N3CCCC3)n21"
unit_of_measurement = "nM"
observed = 2690


Requested read-out IC50, target or system type 4 phosphodiesterases (PDE4), entry O=c1c2cc(I)ccc2n2c(N3CCCC3)nnc2n1Cc1ccccc1
78

Entry CN(C)c1nnc2n(CC=Cc3ccccc3)c(=O)c3cc(Br)ccc3n12 please
41

Entry O=c1c2cc(Br)ccc2n2c(N3CCCCCC3)nnc2n1CC=Cc1ccncc1 please
18

Entry CN(C)C(=O)Cc1ccc(Cn2c(=O)c3cc(Br)ccc3n3c(N4CCCC4)nnc23)cc1 please
11

Entry Cc1ccc(Cn2c(=O)c3cc(Br)ccc3n3c(N(C)C)nnc23)cc1 please
38

###

Readout Label: melting point (°C)
Respond with the bare value in °C.

# example entries with known answers
[[record]]
compound_string = "O=c1c2ccccc2n2c(N3CCCCCC3)nnc2n1Cc1ccccc1"
readout_label = "melting point"
unit_of_measurement = "°C"
observed = 157

[[record]]
compound_string = "Cc1ccc2c(c1)c(=O)nc1n(CC=Cc3ccccc3)nc(N3CCCCCC3)n21"
readout_label = "melting point"
unit_of_measurement = "°C"
observed = 193

[[record]]
compound_string = "O=c1nc2n(Cc3ccc(F)cc3)nc(N3CCCCCC3)n2c2ccc(Br)cc12"
readout_label = "melting point"
unit_of_measurement = "°C"
observed = 216


Need melting point of O=c1nc2n(C/C=C/c3ccccc3)nc(N3CCCCC3)n2c2ccc(Br)cc12 , thanks.
187

Entry COc1ccc(Cn2c(=O)c3cc(Br)ccc3n3c(N4CCCC4)nnc23)cc1OC please
151

Entry COc1ccc(C=CCn2c(=O)c3cc(Br)ccc3n3c(N4CCCC4)nnc23)cc1 please
171

Entry N#Cc1ccc(Cn2c(=O)c3cc(Br)ccc3n3c(N4CCCC4)nnc23)cc1 please
116

Entry Cc1ccc2c(c1)c(=O)n(Cc1ccc(C#N)cc1)c1nnc(N3CCCC3)n21 please
166

Entry Cc1ccc2c(c1)c(=O)n(CC=Cc1ccccc1)c1nnc(N3CCCC3)n21 please
173

Entry CNc1ccc2c(c1)c(=O)n(Cc1ccccc1)c1nnc(N3CCCC3)n21 please
171

###

Readout Label: melting point (°C)
Respond with the bare value in °C.

# example entries with known answers
[[record]]
molecule = "O=c1nc2n(Cc3ccc(Br)cc3)nc(N3CCCCCC3)n2c2ccc(Cl)cc12"
readout_label = "melting point"
unit_of_measurement = "°C"
observed = 244

[[record]]
molecule = "Cn1c(=O)c2cc(Cl)ccc2n2c(N3CCc4ccccc4C3)nnc12"
readout_label = "melting point"
unit_of_measurement = "°C"
observed = 272

[[record]]
molecule = "CN(C)c1nnc2n(Cc3ccc(C#N)cc3)c(=O)c3cc(Br)ccc3n12"
readout_label = "melting point"
unit_of_measurement = "°C"
observed = 207

[[record]]
molecule = "O=c1nc2n(Cc3cccnc3)nc(N3CCCCCC3)n2c2ccc(Cl)cc12"
readout_label = "melting point"
unit_of_measurement = "°C"
observed = 184

[[record]]
molecule = "O=c1nc2n(Cc3ccccn3)nc(N3CCCCCC3)n2c2ccc(Cl)cc12"
readout_label = "melting point"
unit_of_measurement = "°C"
observed = 153


Need melting point of CN(C)c1nnc2n(Cc3ccc(O)cc3)c(=O)c3cc(Br)ccc3n12 , thanks.
284

Entry COC(=O)c1ccc(Cn2c(=O)c3cc(C)ccc3n3c(N4CCCC4)nnc23)cc1 please
230

Entry O=c1c2cc(Cl)ccc2n2c(N3CCCCCC3)nnc2n1Cc1ccccn1 please
152

Entry Cc1noc(C)c1Cn1c(=O)c2cc(Br)ccc2n2c(N3CCCC3)nnc12 please
221

Entry CN(C)c1nnc2n(CC=Cc3ccccc3)c(=O)c3cc(Br)ccc3n12 [Compound 86] please
167

Entry O=c1nc2n(CC=Cc3ccccc3)nc(N3CCCC3)n2c2ccc(O)cc12 please
255

Entry O=c1nc2n(Cc3cccc(Cl)c3)nc(N3CCCCCC3)n2c2ccc(Cl)cc12 please
166

Entry CN(C)c1nnc2n(Cc3ccc(C#N)cc3)c(=O)c3cc(N)ccc3n12 please
163

Entry O=c1c2cc(Cl)ccc2n2c(N3CCCCCC3)nnc2n1Cc1ccncc1 please
137

Entry COc1ccc(C(=O)Cn2nc(N3CCCCCC3)n3c4ccc(Cl)cc4c(=O)nc23)cc1 please
238

Entry Cc1ccc2c(c1)c(=O)n(Cc1ccccc1)c1nnc(N3CCSCC3)n21 please
265

###

system: TNFα production by human leukocytes; assay: Inhibition of TNFα production by human leukocytes stimulated by lipopolysaccharid; type: cell-based; settings: Leukocyte; LPS-stimulated human leukocytes in 75% human serum; TNFα by ELISA after 15-18 hours
Measured pIC50, listed per entry for reference.
Keep in mind that pIC50 stands for -log10 of concentration in molar terms.

# example entries with known answers
[[record]]
compound_string = "CN(C)c1nnc2n(CC=Cc3ccccc3)c(=O)c3cc(Br)ccc3n12"
observed = 5.17

[[record]]
compound_string = "CN(C)c1nnc2n(C/C=C/c3cccnc3)c(=O)c3cc(Br)ccc3n12"
observed = 5.47

[[record]]
compound_string = "Cc1ccc2c(c1)c(=O)n(Cc1ccc(C#N)cc1)c1nnc(N(C)C)n21"
observed = 5.07

[[record]]
compound_string = "Cc1ccc2c(c1)c(=O)n(CC=Cc1cccnc1)c1nnc(N(C)C)n21"
observed = 5.09


# evaluate next
Need pIC50 of Cc1ccc2c(c1)c(=O)n(C/C=C/c1ccccc1)c1nnc(N(C)C)n21 , thanks.
4.97

###

Measured melting point, listed per entry for reference.
Respond with the bare value in °C.

[[record]]
compound_string = "CC(=O)Oc1ccc(Cn2c(=O)c3cc(Br)ccc3n3c(N4CCCC4)nnc23)cc1"
unit_of_measurement = "°C"
observed = 195

[[record]]
compound_string = "COc1ccc(Cn2nc(N3CCCCCC3)n3c4ccc(Br)cc4c(=O)nc23)cc1OC"
unit_of_measurement = "°C"
observed = 174

[[record]]
compound_string = "N#Cc1cccc(Cn2c(=O)c3cc(Br)ccc3n3c(N4CCCC4)nnc23)c1"
unit_of_measurement = "°C"
observed = 206

[[record]]
compound_string = "O=c1nc2n(Cc3ccccc3)nc(N3CCCCCC3)n2c2ccc(Cl)cc12"
unit_of_measurement = "°C"
observed = 148

[[record]]
compound_string = "COc1ccc(Cn2c(=O)c3cc(C)ccc3n3c(N4CCCC4)nnc23)cc1OC"
unit_of_measurement = "°C"
observed = 184

[[record]]
compound_string = "O=c1c2cc(Br)ccc2n2c(N3CCCC3)nnc2n1CCSc1ccccc1"
unit_of_measurement = "°C"
observed = 122


Need melting point of O=c1c2cc(Br)ccc2n2c(N3CCCC3)nnc2n1Cc1ccc([N+](=O)[O-])cc1 , thanks.
200

###

Measured melting point, listed per entry for reference.
Remember to follow the number with its unit.

# example entries with known answers
[[record]]
molecule = "CN(C)c1nnc2n(Cc3ccc(CC#N)cc3)c(=O)c3cc(Br)ccc3n12 [Compound 83]"
observed = "230 °C"

[[record]]
molecule = "O=C(O)Cc1ccc(Cn2nc(N3CCCCCC3)n3c4ccc(Br)cc4c(=O)nc23)cc1 [Compound 138]"
observed = "269 °C"

[[record]]
molecule = "O=c1c2cc([N+](=O)[O-])ccc2n2c(N3CCCCCC3)nnc2n1Cc1ccccc1 [Compound 198]"
observed = "206 °C"

[[record]]
molecule = "O=c1c2cc(Cl)ccc2n2c(N3CCCC3)nnc2n1Cc1cccnc1 [Compound 31]"
observed = "176 °C"

[[record]]
molecule = "Cc1ccc2c(c1)c(=O)n(Cc1ccccc1)c1nnc(N3CCCC3)n21 [Compound 191]"
observed = "189 °C"


Need melting point of O=C(O)Cc1ccc(Cn2c(=O)c3cc(Br)ccc3n3c(N4CCCC4)nnc23)cc1 [Compound 56] , thanks.
260 °C

Entry COc1ccc(Cn2nc(N3CCCCCC3)n3c4ccc(Cl)cc4c(=O)nc23)cc1OC [Compound 124] please
153 °C

Entry Cn1c(=O)c2cc(Cl)ccc2n2c(N3CCC(Cc4ccccc4)CC3)nnc12 [Compound 210] please
180 °C
